Source: paper PMC9127185

- ASSAY: Pharmacokinetic study after oral administration, plasma by UPLC-MS/MS
- Format: in vivo, C57BL/6J mice
- DETAILS: C57BL/6J, mouse; oral 20 mg/kg, mice plasma
OBSERVED_PROPERTY: Cmax (ng/mL)
Give the value, in units of ng/mL, as a plain number.

[in] Could you please provide reported Cmax for N#Cc1cn(-c2cc(Cl)c(Oc3cc(C4CCC4)c(=O)[nH]n3)c(Cl)c2)c(=O)[nH]c1=O ? Thanks!
[out] 293
